Can you tell me Kd for the items I'm about to list?
molecular target: CacKam (Catenulispora acidiphila, UniProt C7Q5P8, W113F); construct: full length 250 residues, N-terminal hexahistidine tag with thrombin site kept; E. coli BL21 (DE3); assay: biochemical
Sequence (C7Q5P8 entry or part of it W113F): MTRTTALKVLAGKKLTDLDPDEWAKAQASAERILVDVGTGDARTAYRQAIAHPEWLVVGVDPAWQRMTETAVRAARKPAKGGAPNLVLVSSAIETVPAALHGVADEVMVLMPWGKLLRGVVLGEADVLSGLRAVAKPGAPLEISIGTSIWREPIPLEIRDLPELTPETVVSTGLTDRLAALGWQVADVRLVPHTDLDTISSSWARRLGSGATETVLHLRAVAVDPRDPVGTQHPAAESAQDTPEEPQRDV
Numbers only, in µM.

Requested field: Kd. Item: C[S+](CC[C@H](N)C(=O)O)C[C@H]1O[C@@H](n2cnc3c(N)ncnc32)[C@H](O)[C@@H]1O (some centres unmarked) [SAM] 103

Please turn your attention to the following entry.
Requested field: Kd. Item: Nc1ncnc2c1ncn2[C@@H]1O[C@H](CSCC[C@H](N)C(=O)O)[C@@H](O)[C@H]1O [SAH] 11

----------
biological target: CacKam (Catenulispora acidiphila, UniProt C7Q5P8, S201A); assay: biochemical
Sequence (C7Q5P8 entry or part of it S201A): as the sequence (C7Q5P8 entry or part of it W113F) above
OBSERVABLE: Kd (µM)
Numbers only, in µM.

Any idea what Kd came out for C[S+](CC[C@H](N)C(=O)O)C[C@H]1O[C@@H](n2cnc3c(N)ncnc32)[C@H](O)[C@@H]1O (stereo partly shown) [SAM] on CacKam (Catenulispora acidiphila, UniProt C7Q5P8, S201A)? 110
